Values were extracted from patent US6656911B2.

Test: Blood level screening after oral dose
Format: in vivo, Sprague-Dawley rats
Conditions: male, Sprague-Dawley, plasma; rat, oral gavage 10 mg/kg, 3 hr; read-out: Plasma Levels (μM) 3 hr
Procedure: The inhibitors were dissolved or suspended in polyethylene glycol (PEG), PEG-400 or PEG:H2O:EtOH at a concentration of 10 mg/ml. Unfasted male Sprague-Dawley rats were given an oral dose of this solution by gavage. […] Depending on the inhibitor, one of four organics (ethyl acetate, toluene, isopropyl ether or methyl t-butyl ether) was used to extract the compound from the plasma. Inhibitor concentrations were measured by HPLC or LC/MS analysis.
readout.type: concentration at 3 h (µM)

Solved cases (6 shown):
• Cc1cccc(Cc2nnc(C(=O)C(NC(=O)CN3C(=O)C(N)N=C(c4ccccc4)c4ccccc43)C(C)C)o2)c1 (centres unmarked) = 5.02
• Cc1cccc(Cc2nnc(C(=O)C(NC(=O)CN3C(=O)CCc4ccccc43)C(C)C)o2)c1 (centres unmarked) = 0.755
• Cc1cccc(Cc2nnc(C(=O)[C@@H](NC(=O)[C@@H]3CCCN3C(=O)[C@@H](NC(=O)OCc3ccccc3)C(C)C)C(C)C)o2)c1 = 0.115
• CC(C)OC(=O)N[C@H](C(=O)N1CCC[C@H]1C(=O)N[C@H](C(=O)c1noc(Cc2cccc(C(F)(F)F)c2)n1)C(C)C)C(C)C = 0
• COC(=O)N[C@H](C(=O)N1CCC[C@H]1C(=O)N[C@H](C(=O)c1nnc(Cc2cccc(C)c2)o1)C(C)C)C(C)C = 0.19
• CC(=O)N1c2ccccc2C[C@H]1C(=O)N[C@H](C(=O)c1nnc(Cc2cccc(C)c2)o1)C(C)C = 0.067

[a] Cc1cccc(Cc2nnc(C(=O)C(NC(=O)C3Cc4cccc5c4N3C(=O)C(N)CC5)C(C)C)o2)c1 (centres unmarked)
[b] Cc1cccc(Cc2nnc(C(=O)[C@@H](NC(=O)CN(Cc3ccccc3)C(=O)c3ccc[nH]3)C(C)C)o2)c1
[c] Cc1cccc(Cc2nnc(C(=O)[C@@H](NC(=O)CN(C(=O)[C@@H](NC(=O)OCc3ccccc3)C(C)C)c3ccccc3)C(C)C)o2)c1
Sequence the entries by concentration at 3 h, beginning with the highest number. Would you mind listing the labels in the order requested?
c, a, b
(c: 0.44 µM, a: 0.162 µM, b: 0.034 µM)

* * *

target: human neutrophil elastase (HNE) (Homo sapiens); test: HNE Ki of CE compounds, tested as described in WO 96/16080; format: biochemical; settings: read-out: HNE Ki
Sequence (P08246 30-267): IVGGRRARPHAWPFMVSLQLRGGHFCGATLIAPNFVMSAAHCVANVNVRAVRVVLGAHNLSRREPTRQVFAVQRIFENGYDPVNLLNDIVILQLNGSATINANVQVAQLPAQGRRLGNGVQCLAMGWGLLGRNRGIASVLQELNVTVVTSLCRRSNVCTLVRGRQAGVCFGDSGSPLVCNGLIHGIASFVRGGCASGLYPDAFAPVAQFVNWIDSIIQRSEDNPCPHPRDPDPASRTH
readout.type: Ki (nM)

* Cc1cccc(Cc2nnc(C(=O)[C@@H](NC(=O)CN3C(=O)NC(C)(c4ccccn4)C3=O)C(C)C)o2)c1 (stereo partly shown) | 4.1

[I] CC(C)[C@H](NC(=O)CN1C(=O)N[C@@H](Cc2ccccc2)C1=O)C(=O)c1noc(Cc2cccc(C(F)(F)F)c2)n1
[II] Cc1cccc(Cc2nnc(C(=O)[C@@H](NC(=O)CN3C(=O)NC(c4ccncc4)(N4C(=O)CCC4=O)C3=O)C(C)C)o2)c1 (stereo partly shown)
[III] CC(C)[C@H](NC(=O)[C@@H]1CCCN1C(=O)[C@@H](NS(C)(=O)=O)C(C)C)C(=O)c1noc(Cc2cccc(C(F)(F)F)c2)n1
Task for the reader: rank each entry by its Ki, from the minimum upward. Form entry: ranked labels (order as requested).
III, II, I
(III: 2.2 nM, II: 8.7 nM, I: 57 nM)
